Experiment: UniDose POD in vitro dissolution of the impactor stage mass (ISM)
Assay type: physicochemical
Details: 500 ml PBS pH 7.4 + 2.0% SDS, 37° C.
OBSERVED_PROPERTY: half-life (h)
Answers are plain numbers, in h.

q: Entry CCC(C)n1ncn(-c2ccc(N3CCN(c4ccc(OCC5COC(Cn6cncn6)(c6ccc(Cl)cc6Cl)O5)cc4)CC3)cc2)c1=O (stereo not shown) : reported half-life = ?
a: 1.7
